Listed below: TGI values for each entry.
Tested on: A498 renal
PROTOCOL SUMMARY: NCI tumour cell line growth inhibition, 48 h

{"columns": ["MOL", "TGI"],
 "data": [
  ["Cc1nc2sc3c(N)ncnc3c2c(C)c1C", "> 25 µM"],
  ["COS(C)(=O)=O", "> 2 µM"],
  ["C=CCNC1=C2C[C@@H](C)C[C@H](OC)[C@H](O)[C@@H](C)/C=C(\\C)[C@H](OC(N)=O)[C@@H](OC)/C=C\\C=C(/C)C(=O)NC(=CC1=O)C2=O", "30 µM"]
]}

* * *

Quick reference: TGI of the listed items.
Tested on: SK-MEL-28 melanoma
PROTOCOL SUMMARY: NCI tumour cell line growth inhibition, 48 h
REPORTED ENDPOINT: TGI

{"columns": ["MOL", "MEASURED TARGET", "REPORTED ENDPOINT", "OBSERVED RESULT"],
 "data": [
  ["C#C[C@@]1(O)[C@@H](CO)O[C@@H](n2cc(C(F)(F)F)c3c(N)ncnc32)[C@@H]1O", "SK-MEL-28 melanoma", "TGI", "10 µM"],
  ["O=C(Nc1ccc(Cl)cc1C(=O)O)c1ccc([N+](=O)[O-])cc1", "SK-MEL-28 melanoma", "TGI", "97.2 µM"],
  ["COc1cc(-c2nc3ccccc3o2)cc(CN2CCCCC2)c1O", "SK-MEL-28 melanoma", "TGI", "4.12 µM"],
  ["C[N+](C)(C)c1cc[c]([Sn]([c]2ccc([N+](C)(C)C)cc2)([c]2ccc([N+](C)(C)C)cc2)[c]2ccc([N+](C)(C)C)cc2)cc1", "SK-MEL-28 melanoma", "TGI", "> 100 µM"]
]}

* * *

Reported TGI values are given for each entry in this list.
Tested on: EKVX NSCLC
PROTOCOL SUMMARY: NCI tumour cell line growth inhibition, 48 h

{"columns": ["COMPOUND", "TGI"],
 "data": [
  ["COc1ccc(CNc2nc(NCc3ccc(OC)cc3)nc(NC3CCCC3)n2)cc1", "> 100 µM"],
  ["CN(C)CCCNC(=O)c1cc(NS(=O)(=O)c2ccc3c(c2)C(=O)c2ccccc2C3=O)cn1C", "> 100 µM"],
  ["CCc1cc2c(O)c(c1)Cc1cc(CC)cc(c1O)Cc1cc(CC)cc(c1O)Cc1cc(CC)cc(c1O)Cc1cc(CC)cc(c1O)Cc1cc(CC)cc(c1O)Cc1cc(CC)cc(c1O)C2", "> 100 µM"],
  ["O=C1Cc2cc(CCn3cncn3)c(Cl)cc2N1", "> 100 µM"],
  ["COc1ccc(N2C(=O)/C(=C\\c3ccccc3)SC2c2cc(OC)c(OC)c(OC)c2)cc1 (stereo unspecified)", "> 100 µM"],
  ["CCn1c(=O)c(C(=O)O)c(Cl)c2cc3c(cc21)OCO3", "> 100 µM"]
]}

* * *

Tested on: MALME-3M melanoma
PROTOCOL SUMMARY: NCI tumour cell line growth inhibition, 48 h
Quick rule: TGI of at least 3 µM means true (1), below that means false (0).

{"columns": ["COMPOUND", "MEASURED TARGET", "DISCRETE LABEL"],
 "data": [
  ["Fc1ccc(-c2nn3ccccc3c2-c2ccncc2)cc1", "MALME-3M melanoma", "true (1)"],
  ["CC(=O)Oc1c2ccsc2c(OC(C)=O)c2ccsc12", "MALME-3M melanoma", "false (0)"],
  ["CC(=O)OCC1OC(NC(=O)N(CCCl)N=O)C(OC(C)=O)C(OC(C)=O)C1OC(C)=O (stereo not given)", "MALME-3M melanoma", "true (1)"],
  ["C#CC1(O)C(COP(=O)(O)OCC2OC(n3cc(F)c(=O)[nH]c3=O)CC2O)OC(n2ccc(N)nc2=O)C1O (stereo not given)", "MALME-3M melanoma", "false (0)"],
  ["O=C1Nc2ccccc2/C1=C\\c1nc(-c2ccccc2F)n2ccccc12", "MALME-3M melanoma", "true (1)"],
  ["Cn1c(=O)cc2[nH]c3ccccc3n2c1=O", "MALME-3M melanoma", "true (1)"],
  ["C/C(=N\\Nc1nc2ccccc2[nH]1)c1cnccn1", "MALME-3M melanoma", "true (1)"],
  ["C=CCOCn1cc(F)c(=O)[nH]c1=O", "MALME-3M melanoma", "true (1)"],
  ["CC(C)OC/N=C(/N)NC#N", "MALME-3M melanoma", "true (1)"],
  ["Nc1nc(Cl)c2ncn(Cc3cccc(CCl)c3)c2n1", "MALME-3M melanoma", "true (1)"],
  ["c1ccc2c(c1)Cc1c(Cc3csc4ccccc34)ccc3cccc-2c13", "MALME-3M melanoma", "true (1)"],
  ["Nc1nc2c(-c3ccc([N+](=O)[O-])cc3)nnn2c2ccccc12", "MALME-3M melanoma", "true (1)"],
  ["[N-]=[N+]=NCCCn1c2c(c3ccc([N+](=O)[O-])cc3c1=O)C(=O)c1cc(-c3ccccc3)ccc1-2", "MALME-3M melanoma", "true (1)"],
  ["CCOC(=O)OC1C(Br)C2CCC1(C)C2(C)C (stereo not given)", "MALME-3M melanoma", "true (1)"],
  ["COc1ccc(OC)c(NC(=O)C(=O)CC(=O)c2sc(-n3nc(-c4ccccc4)cc3-c3ccccc3)nc2C)c1", "MALME-3M melanoma", "true (1)"],
  ["CCC(=O)N1C/C(=C/c2ccc(Br)cc2)C(=O)/C(=C/c2ccc(Br)cc2)C1", "MALME-3M melanoma", "true (1)"],
  ["O=C(N=c1nc(NC(=O)c2ccccc2)ss1)c1ccccc1", "MALME-3M melanoma", "true (1)"],
  ["CCN(CC)c1ccc(-c2cc(-c3cc(OC)c(OC)c(OC)c3)nc(N3CCC(O)CC3)c2C#N)cc1", "MALME-3M melanoma", "false (0)"],
  ["CCCCCCCCCCCCCCCC(=O)OCCOCCOCCOCCOCCOC(=O)CCCCCCCCCCCCCCC", "MALME-3M melanoma", "true (1)"]
]}
